target-entity: T1, Human PDGF-BB (human, UniProt P01127 82-190)
T1 construct: Recombinant human PDGF-BB, a homodimer of two B chains; also called hPDGF-BB; huPDGF-BB
T1 sequence (P01127 82-190 limits assumed): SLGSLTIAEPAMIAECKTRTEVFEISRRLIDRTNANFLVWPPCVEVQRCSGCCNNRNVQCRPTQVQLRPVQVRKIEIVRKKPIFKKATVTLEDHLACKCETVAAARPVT
experiment-summary: SPR (Biacore), antibody captured via anti-human Fc, antigen in solution; footnote *: heterogeneous off-rate
endpoint-label: Kd

binder	endpoint-label	reported
hBDI-5H1.7 (antibody, V domains shown, Humanized IgG) VH: EVTLKESGPALVKPTQTLTLTCTFSGFSLSTFGMGVGWIRQPPGKALEWLANIWWDDDKYYNPSLKNRLTISKDTSKNQAVLTITNMDPVDTATYYCARISTGISSYYVMDAWGQGTTVTVSS VL: EIVLTQSPGTLSLSPGERATLSCERSSGDIGDTYVSWYQQKPGQAPRLLIYGNDQRPSGIPDRFSGSGSGTDFTLTISRLEPEDFAVYYCQSYDSDIDIVFGGGTKVEIK	Kd	≤ 2.9 nM
